All figures here come from patent US11814447B2.

# target or system: T1, Human EphA2 (Ecto) (Human, UniProt P29317 24-537)
# T1 construct: extracellular domain; in-house)
# T1 sequence (P29317 24-537): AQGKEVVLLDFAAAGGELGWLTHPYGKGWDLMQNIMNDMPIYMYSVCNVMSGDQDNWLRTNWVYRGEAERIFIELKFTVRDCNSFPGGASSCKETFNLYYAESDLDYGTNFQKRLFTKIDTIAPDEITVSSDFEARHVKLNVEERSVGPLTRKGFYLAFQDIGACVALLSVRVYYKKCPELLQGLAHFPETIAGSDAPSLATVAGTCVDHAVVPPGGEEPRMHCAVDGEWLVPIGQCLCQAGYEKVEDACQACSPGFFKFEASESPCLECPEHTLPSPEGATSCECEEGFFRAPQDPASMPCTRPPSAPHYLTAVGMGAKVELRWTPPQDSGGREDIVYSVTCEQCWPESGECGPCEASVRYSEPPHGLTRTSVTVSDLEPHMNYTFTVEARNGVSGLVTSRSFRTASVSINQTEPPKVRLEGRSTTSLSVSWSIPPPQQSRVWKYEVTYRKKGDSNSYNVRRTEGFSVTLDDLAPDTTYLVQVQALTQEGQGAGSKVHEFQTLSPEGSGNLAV
# assay method text: FP competition; tracer Reference Compound C
pKi: −log10 of the molar value. Starred links: 1 amine or outer side, 2 acyl side, 3 side chain; linkers in the order of their positions; H or OH if unused. Positions of bridges follow the written chain, without caps; N, C: chain ends. Non-standard residues stand in square brackets, D forms with d. No end group written: not given here. TATA = O=C(CC[*:1])N1CN(C(=O)CC[*:2])CN(C(=O)CC[*:3])C1; 2Nal = N[C@@H](Cc1ccc2ccccc2c1)C(=O)O
Classes are defined on pKi with ranges low group (below 7), middle group (7 to below 8), high group (8 or more)

Reference set (10 entries):
Any idea which band ACPLVNPLCLVPGWSCA (linker 2-9-16 via TATA (inferred)) [Bicycle Compound Number 57 (TATA scaffold), ACPLVNPLCLVPGWSCA] is in? middle group

Any idea which band ACGFMGLEPCVTYCA (linker 2-10-14 via TATA) [Bicycle Compound Number 43 (TATA scaffold), ACGFMGLEPCVTYCA] is in? low group

Any idea which band ACPLVNPLCLHPG[2Nal]SCRGQ (linker 2-9-16 via TATA) [Bicycle Compound Number 93 (TATA scaffold), ACPLVNPLCLHPG(2Nal)SCRGQ] is in? low group

Any idea which band ACPLVNPLCLHPGWTCA (linker 2-9-16 via TATA (inferred)) [Bicycle Compound Number 64 (TATA scaffold), ACPLVNPLCLHPGWTCA] is in? middle group

Any idea which band XXXXXXXXXXXACPLVNPLCLHPGWTCLHG (N-terminal (β-Ala)-Sar10; 3 Cys thioether-linked to TATA scaffold) [Bicycle Compound Number 75 (TATA scaffold), (β-Ala)-Sar10-ACPLVNPLCLHPGWTCLHG] is in? high group

Any idea which band XXXXXXXXXXXACPLVNPLCLHPGWSCRGQ (N-terminal (β-Ala)-Sar10; 3 Cys thioether-linked to TATA scaffold) [Bicycle Compound Number 89 (TATA scaffold), (β-Ala)-Sar10-ACPLVNPLCLHPGWSCRGQ] is in? high group

Any idea which band ACTSCWAYPDSFCA (linker 2-5-13 via TATA) [Bicycle Compound Number 32 (TATA scaffold), ACTSCWAYPDSFCA] is in? low group

Any idea which band ACSSCWAYPDSVCA (linker 2-5-13 via TATA) [Bicycle Compound Number 38 (TATA scaffold), ACSSCWAYPDSVCA] is in? low group

Any idea which band ESRCSPDARCAYMNVCA (linker 4-10-16 via TATA) [Bicycle Compound Number 20 (TATA scaffold), ESRCSPDARCAYMNVCA] is in? middle group

Any idea which band CPLVNPLCLHPGWTCLHGXXXXXXK (N-terminal acetyl; X at 19-24 = Sar; K25 = D-Lys; 3 Cys thioether-linked to TATA scaffold) [Bicycle Compound Number 77 (BCY6019) (TATA scaffold), Ac-CPLVNPLCLHPGWTCLHG-Sar6-(D-K)] is in? high group

Further cases:
Any idea which band Ac-CPLVNPLCLHPGWSCRGQ (linker 1-8-15 via TATA) [Bicycle Compound Number 88 (TATA scaffold), Ac-CPLVNPLCLHPGWSCRGQ] is in? high group

Any idea which band ACMNDWWCAMGWKCA (linker 2-8-14 via TATA) [Bicycle Compound Number 15 (TATA scaffold), ACMNDWWCAMGWKCA] is in? low group

Any idea which band ACPLVNPLCLYGSWKCA (linker 2-9-16 via TATA (inferred)) [Bicycle Compound Number 63 (TATA scaffold), ACPLVNPLCLYGSWKCA] is in? middle group

Any idea which band ACGFMGLEPCELFCMPK (linker 2-10-14 via TATA (inferred)) [Bicycle Compound Number 47 (TATA scaffold), ACGFMGLEPCELFCMPK] is in? low group

Any idea which band ACGFMGLEPCETFCA (linker 2-10-14 via TATA) [Bicycle Compound Number 40 (TATA scaffold), ACGFMGLEPCETFCA] is in? low group
